Please respond with TRUE when measured boiling point is strictly beneath 100 °C, and with FALSE in all other cases.

Please indicate whether the reported boiling point of FC(F)(F)I is strictly below 100 °C.
TRUE

Please indicate whether the reported boiling point of Cc1cc[nH]c1 is strictly below 100 °C.
FALSE

Please indicate whether the reported boiling point of CCCCCCCCCCCCCCCCCN is strictly below 100 °C.
FALSE

====

MEASURE: boiling point
Enter the number, and then the unit.

COMPOUND: COC(C)=O
boiling point: 56.8 °C

What does the data say about its boiling point? Entry: CCn1c(C)nc2ccccc21
296 °C

What does the data say about its boiling point? Entry: CCCCCCCc1ccccc1
240 °C

What does the data say about its boiling point? Entry: CCN(CC)CCN
144 °C

What does the data say about its boiling point? Entry: CC(CCl)CCl
136 °C

What does the data say about its boiling point? Entry: CCCCCCc1cccc2ccccc12
322 °C

====

Grouping rule (log10 vapour pressure (mmHg)): low: < -2; middle: ≥ -2 and < 0.7; high: ≥ 0.7

COMPOUND: O=S1(=O)OCC2C(CO1)C1(Cl)C(Cl)=C(Cl)C2(Cl)C1(Cl)Cl (configuration not stated)
GROUP LABEL: low
//
COMPOUND: c1ccc2cc3c4ccccc4c4ccccc4c3cc2c1
GROUP LABEL: low
//
COMPOUND: CCOC
GROUP LABEL: high
//
COMPOUND: CON(C)C(=O)Nc1ccc(Br)cc1
GROUP LABEL: low
//
COMPOUND: O=C(O)c1ccc[nH]1
GROUP LABEL: low

Here is the next item to consider.
Hello team, could you let me know which band the following compound falls into: ClCc1ccc(Cl)cc1Cl
middle

====

Grouping rule (log10 vapour pressure (mmHg)): low: < -4; intermediate: ≥ -4 and < -1; high: ≥ -1

COMPOUND: CCCCCCCCl
GROUP LABEL: high
//
COMPOUND: O=C(O)c1ccccc1C(=O)O
GROUP LABEL: low
//
COMPOUND: N#CO
GROUP LABEL: high
//
COMPOUND: Brc1c(Br)c(Br)c2c(c1Br)Oc1c(Br)c(Br)c(Br)c(Br)c1O2
GROUP LABEL: low
//
COMPOUND: CCCCCCCCCCCCCCCCCCCC(=O)O
GROUP LABEL: low

Hello team, could you let me know which band the following compound falls into: Cc1cccc(O)c1
high

Hello team, could you let me know which band the following compound falls into: Clc1cc2c(oc3c(Cl)c(Cl)c(Cl)c(Cl)c32)c(Cl)c1Cl
low

Hello team, could you let me know which band the following compound falls into: NC(N)=S
intermediate

Hello team, could you let me know which band the following compound falls into: ClCc1ccccc1
high

Hello team, could you let me know which band the following compound falls into: c1ccc2c(c1)Cc1cc3ccccc3cc1-2
low

====

Please respond with Met when measured log10 Henry constant (atm·m³/mol) is strictly beneath -4, and with Not met in all other cases.

Solved cases below.
COMPOUND: Clc1ccc(C(c2ccc(Cl)cc2)C(Cl)Cl)cc1
GROUP LABEL: Met
//
COMPOUND: Clc1cc(Cl)c(-c2c(Cl)c(Cl)cc(Cl)c2Cl)c(Cl)c1Cl
GROUP LABEL: Met
//
COMPOUND: CCOP(=O)(OCC)OCC
GROUP LABEL: Met
//
COMPOUND: CCCCNC(=O)n1c(NC(=O)OC)nc2ccccc21
GROUP LABEL: Met
//
COMPOUND: C=C(Cl)Cl
GROUP LABEL: Not met
//
COMPOUND: CCN(CC)N=O
GROUP LABEL: Met

Please indicate whether the reported log10 Henry constant (atm·m³/mol) of Cc1ccccc1O is strictly below -4.
Met

Please indicate whether the reported log10 Henry constant (atm·m³/mol) of Clc1cccc(-c2c(Cl)cc(Cl)c(Cl)c2Cl)c1Cl is strictly below -4.
Met

Please indicate whether the reported log10 Henry constant (atm·m³/mol) of CC(O)C(C)O[N+](=O)[O-] (stereo unspecified) is strictly below -4.
Met

====

melting point listing for selected molecules.
All answers are understood in °C, so give the number only.

Reference set (6 entries):
MOLECULE: CC(=O)OC(C)C#N (stereo not drawn)
melting point [°C]: -75
//
MOLECULE: CC(C)(N=C(O)C(Br)C(C)(C)C)c1ccccc1 (stereo not drawn)
melting point [°C]: 180
//
MOLECULE: O=C(OC(=O)c1ccccc1)c1ccccc1
melting point [°C]: 42.5
//
MOLECULE: O=[N+]([O-])c1ccccc1O
melting point [°C]: 44.8
//
MOLECULE: C=C(C)CC(C)C
melting point [°C]: -124
//
MOLECULE: CCCCC(=O)OC(=O)CCCC
melting point [°C]: -56.1

What does the data say about its melting point? Entry: N#CC(Br)(Br)C(N)=O
124

What does the data say about its melting point? Entry: Cc1cc(C)c(C)c(O)c1
93.5

====

boiling point listing for selected molecules.
All answers are understood in °C, so give the number only.

Reference set (5 entries):
MOLECULE: CCCCBr
boiling point / °C: 101
//
MOLECULE: CC(O)COc1ccccc1 (centres undefined)
boiling point / °C: 243
//
MOLECULE: Brc1cccs1
boiling point / °C: 150
//
MOLECULE: C=CCc1ccc(OC(C)=O)c(OC)c1
boiling point / °C: 281
//
MOLECULE: CCCS
boiling point / °C: 67.8

Next molecule, please.
What does the data say about its boiling point? Entry: Cc1cc2cccc(C)c2cc1C
285

====

Threshold rule: boiling point greater than or equal to 200 °C is True; below that, False.

MOLECULE: ClC(Cl)=C(Cl)Cl
GROUP LABEL: False
--
MOLECULE: CC(=O)Oc1ccc(C)cc1
GROUP LABEL: True
--
MOLECULE: C=C(C)C
GROUP LABEL: False
--
MOLECULE: CNNC
GROUP LABEL: False
--
MOLECULE: CCCCn1cccc1
GROUP LABEL: False

Decide: is the reported value of boiling point for CC/C=C(\C)C(=O)O equal to or greater than 200 °C?
True

Decide: is the reported value of boiling point for CCCCOc1ccc(C)cc1 equal to or greater than 200 °C?
True

Decide: is the reported value of boiling point for COc1ccccc1CCN equal to or greater than 200 °C?
True

Decide: is the reported value of boiling point for CC(CC=O)CCCC(C)(C)O (configuration not stated) equal to or greater than 200 °C?
True

Decide: is the reported value of boiling point for CN(C)CCO equal to or greater than 200 °C?
False

Decide: is the reported value of boiling point for Cc1c(C)c(Br)c(Br)c(Br)c1Br equal to or greater than 200 °C?
True

Decide: is the reported value of boiling point for CCCCCCCC(N)=O equal to or greater than 200 °C?
True

Decide: is the reported value of boiling point for C=CC(OCC)OCC equal to or greater than 200 °C?
False

Decide: is the reported value of boiling point for CC1(C(=O)O)CCCCC1 equal to or greater than 200 °C?
True

Decide: is the reported value of boiling point for CCCCCCCOC=O equal to or greater than 200 °C?
False

Decide: is the reported value of boiling point for CCCCCC(=O)Cl equal to or greater than 200 °C?
False

Decide: is the reported value of boiling point for CC(C)SSC(C)C equal to or greater than 200 °C?
False

Decide: is the reported value of boiling point for FCOC(F)(F)C(F)F equal to or greater than 200 °C?
False

Decide: is the reported value of boiling point for O=[N+]([O-])c1ccccc1O equal to or greater than 200 °C?
True

Decide: is the reported value of boiling point for CCCCCCCOC(=O)CCC equal to or greater than 200 °C?
True

Decide: is the reported value of boiling point for COCCCN equal to or greater than 200 °C?
False

Decide: is the reported value of boiling point for CC(N)CCN (configuration not stated) equal to or greater than 200 °C?
False

Decide: is the reported value of boiling point for CCC1CCC(=O)O1 (configuration not stated) equal to or greater than 200 °C?
True

====

boiling point listing for selected compounds.
All answers are understood in °C, so give the number only.

Reference set (5 entries):
COMPOUND: CCOC(=O)CCCC(C)=O
UNITS TEXT: °C
boiling point: 222

COMPOUND: CCOc1ccc(C=O)cc1
UNITS TEXT: °C
boiling point: 249

COMPOUND: CC1SC(C)SC(C)S1 (stereo not drawn)
UNITS TEXT: °C
boiling point: 246

COMPOUND: C=CC(O)CCCCCC (stereo not drawn)
UNITS TEXT: °C
boiling point: 194

COMPOUND: CCC(C)(CC)C(C)(C)C
UNITS TEXT: °C
boiling point: 170

What does the data say about its boiling point? Entry: Cc1cnc(C)c(C)n1
172

What does the data say about its boiling point? Entry: Nc1c(Cl)cc(Cl)cc1Cl
262

What does the data say about its boiling point? Entry: O=C=NS(=O)(=O)Cl
107

What does the data say about its boiling point? Entry: C=COCCOCCO
196

What does the data say about its boiling point? Entry: ClCC(Cl)=C(Cl)Cl
167

What does the data say about its boiling point? Entry: c1ccc(SSc2ccccc2)cc1
310
